Would you mind telling me the reported TI of each entry?
# System: pentylenetetrazole (PTZ)-induced convulsions
# assay_info: Antagonism to pentylenetetrazole (PTZ) convulsions
# Format: in vivo
# condition_set: therapeutic index TI = LD50/ED50
Give bare numbers.

Sample answers from the record:
INSERT INTO measurements (compound_string, measurement) VALUES
  ('CCCc1nc(OCc2cn(CC(=O)N3CCN(c4nc(CCC)c5c(c4C#N)CC(C)(C)OC5)CC3)nn2)c(C#N)c2c1COC(C)(C)C2', 21.3),
  ('CCCc1nc(N2CCN(C(=O)Cn3cc(COc4nc(C(C)C)c5c(c4C#N)CCC5)nn3)CC2)c(C#N)c2c1COC(C)(C)C2', 18.6);

Next compound, please.
-- ask Write down the reported TI of "CCCc1nc(N2CCN(C(=O)Cn3cc(COc4nc(CC)c5c(c4C#N)CC(C)(C)OC5)nn3)CC2)c(C#N)c2c1COC(C)(C)C2" , test system: pentylenetetrazole (PTZ)-induced convulsions.
-- reply 27.3

###

Kindly state TI for each of the entries shown.
# Tested on: pentylenetetrazole (PTZ)-induced convulsions
# assay_info: Antagonism to pentylenetetrazole (PTZ) convulsions
# Type: in vivo
# condition_set: therapeutic index TI = LD50/ED50
Numbers only.

INSERT INTO assay_data (compound, measured_target, measure_name, measurement) VALUES
  ('CN1C(=O)CN=C(c2ccccc2)c2cc(Cl)ccc21 [Diazepam, diazepam, reference compound]', 'pentylenetetrazole (PTZ)-induced convulsions', 'TI', 360),
  ('Cc1nc(N2CCN(C(=O)Cn3cc(COc4nc(C(C)C)c5c(c4C#N)CCC5)nn3)CC2)c(C#N)c2c1COC(C)(C)C2', 'pentylenetetrazole (PTZ)-induced convulsions', 'TI', 44.5),
  ('CCCc1nc(N2CCN(C(=O)Cn3cc(COc4nc(C)c5c(c4C#N)CC(C)(C)OC5)nn3)CC2)c(C#N)c2c1COC(C)(C)C2', 'pentylenetetrazole (PTZ)-induced convulsions', 'TI', 28.6),
  ('Cc1nc(OCc2cn(CC(=O)N3CCN(c4nc(C)c5c(c4C#N)CC(C)(C)OC5)CC3)nn2)c(C#N)c2c1COC(C)(C)C2', 'pentylenetetrazole (PTZ)-induced convulsions', 'TI', 54.7),
  ('Cc1nc(N2CCN(C(=O)Cn3cc(COc4nc(-c5ccco5)c5c(c4C#N)CCCC5)nn3)CC2)c(C#N)c2c1COC(C)(C)C2', 'pentylenetetrazole (PTZ)-induced convulsions', 'TI', 42.3);

For each of the items listed, what is its TI?
1. CCc1nc(N2CCN(C(=O)Cn3cc(COc4nc(C(C)C)c5c(c4C#N)CCCC5)nn3)CC2)c(C#N)c2c1COC(C)(C)C2
2. CCc1nc(OCc2cn(CC(=O)N3CCN(c4nc(CC)c5c(c4C#N)CC(C)(C)OC5)CC3)nn2)c(C#N)c2c1COC(C)(C)C2

-- reply
1. 26.7
2. 18.8

###

# Test system: mouse
# assay_info: Elevated plus maze (EPM) test
# Format: in vivo
# condition_set: 50 mg/kg i.p., 5 min, control 269.2 ± 10.4
I'd appreciate it if you could supply Time Spent in Closed Arms values for the items below.
Please answer using a numeric value trailed by its unit.

INSERT INTO assay_data (compound_string, measurement) VALUES
  ('Cc1nc(N2CCN(C(=O)Cn3cc(COc4nc(-c5ccco5)c5c(c4C#N)CCCC5)nn3)CC2)c(C#N)c2c1COC(C)(C)C2', '261.2 ± 20.8 s');

# batch: return Time Spent in Closed Arms for each of the 3 compounds below
1. CCCc1nc(N2CCN(C(=O)Cn3cc(COc4nc(C(C)C)c5c(c4C#N)CCC5)nn3)CC2)c(C#N)c2c1COC(C)(C)C2
2. Cc1nc(OCc2cn(CC(=O)N3CCN(c4nc(C)c5c(c4C#N)CC(C)(C)OC5)CC3)nn2)c(C#N)c2c1COC(C)(C)C2
3. CCCc1nc(OCc2cn(CC(=O)N3CCN(c4nc(CCC)c5c(c4C#N)CC(C)(C)OC5)CC3)nn2)c(C#N)c2c1COC(C)(C)C2

-- reply
1: 244.0 ± 10.67 s; 2: 175.4 ± 6.23 s; 3: 243.8 ± 20.7 s
